In this section we review reported CC50 at 48 h values for a set of compounds.
assay: Cell viability assay (trypan blue), HL-CZ cells; conditions: human, CC50 HL-CZ, trypan blue staining
property: CC50 at 48 h (µg/mL)

>>> measured_number("O=C1/C(=C2\\Nc3ccccc3C2=O)Nc2ccccc21 [Indigo, indigo]")
99.4
>>> measured_number("O=C1Nc2ccccc2/C1=C1/Nc2ccccc2C1=O [Indirubin, indirubin]")
64.9

* * *

Quick reference: CC50 at 48 h of the listed items.
assay: Cell viability assay (trypan blue), BHK-21 cells; settings: hamster, CC50 BHK-21, BHK-21 cells, trypan blue staining
property: CC50 at 48 h

>>> result("O=c1[nH]c2ccccc2o1")
"< 25 µg/mL"
>>> result("O=C1Nc2ccccc2/C1=C1/Nc2ccccc2C1=O")
"57.5 µg/mL"
>>> result("C=C(C)[C@@H]1CC[C@]2(CO)CC[C@]3(C)[C@H](CC[C@@H]4[C@@]5(C)CC[C@H](O)C(C)(C)[C@@H]5CC[C@]43C)[C@@H]12")
"< 25 µg/mL"
>>> result("Nc1ncnc2c1ncn2[C@@H]1O[C@H](CO)[C@@H](O)[C@H]1O")
"< 25 µg/mL"
